Data origin, for the record: the supplement of paper PMC12667976

B1: library; numbered along this chain (parent)
chain: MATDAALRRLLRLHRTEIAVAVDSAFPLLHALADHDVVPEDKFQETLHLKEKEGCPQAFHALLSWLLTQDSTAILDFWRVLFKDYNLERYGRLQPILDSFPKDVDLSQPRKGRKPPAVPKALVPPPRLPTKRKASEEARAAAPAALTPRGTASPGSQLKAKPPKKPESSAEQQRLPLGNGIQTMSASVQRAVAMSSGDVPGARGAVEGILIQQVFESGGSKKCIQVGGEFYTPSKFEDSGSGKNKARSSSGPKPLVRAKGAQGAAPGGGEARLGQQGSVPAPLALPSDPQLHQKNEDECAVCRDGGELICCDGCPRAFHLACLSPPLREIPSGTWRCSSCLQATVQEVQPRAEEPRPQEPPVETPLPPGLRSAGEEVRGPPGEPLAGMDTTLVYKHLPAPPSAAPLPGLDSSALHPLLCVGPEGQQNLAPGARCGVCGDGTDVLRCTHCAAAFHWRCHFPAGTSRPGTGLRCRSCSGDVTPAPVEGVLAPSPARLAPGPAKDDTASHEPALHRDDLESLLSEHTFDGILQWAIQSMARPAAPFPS

variants of: B1; assay: AIRE transcriptional activation functional score (insulin promoter-GFP; nonsense median 0, synonymous median 1) (normalised score); higher = higher AIRE activity (more reporter activation); conditions: with insulin promoter-GFP reporter in HEK293
Could you please report measured AIRE transcriptional activation functional score for the items listed next?
Keep the answer to the number alone.

Lookup: I have this variant here, V362L , and I need its recorded AIRE transcriptional activation functional score.
Found: 0.999

Lookup: Any idea what its AIRE transcriptional activation functional score is? The variant is P380E
Found: 0.934

Lookup: // lookup AIRE transcriptional activation functional score for R139F
Found: 1.51

Lookup: Query (variant): Y231R ; field requested: AIRE transcriptional activation functional score
Found: 0.669

Lookup: For R89P , what is its reported AIRE transcriptional activation functional score?
Found: -1.08

Lookup: Given the entry L62H , report its measured AIRE transcriptional activation functional score.
Found: -0.594

Lookup: Name the reported AIRE transcriptional activation functional score value associated with the variant I224K
Found: 0.822

Lookup: Would you mind telling me what AIRE transcriptional activation functional score value was observed for K159L ?
Found: 1.18

Lookup: Using the record for G54C , report its AIRE transcriptional activation functional score.
Found: 0.165

Lookup: # AIRE transcriptional activation functional score lookup, item A141H
Found: 1.12

Lookup: Suppose we examine the variant V256K ; what AIRE transcriptional activation functional score value has been reported?
Found: 0.102

Lookup: Given the entry Q530S , report its measured AIRE transcriptional activation functional score.
Found: 0.546

Lookup: Quick one: AIRE transcriptional activation functional score of A58F ?
Found: 0.0934

Lookup: Endpoint output: AIRE transcriptional activation functional score of N427Y . Value?
Found: 1.47

Lookup: For the variant shown here, S135W , give the reported AIRE transcriptional activation functional score.
Found: 1.79

Lookup: Sample K159R — what was its AIRE transcriptional activation functional score?
Found: 1.48

Lookup: Look up AIRE transcriptional activation functional score: P384R
Found: 1.19

Lookup: I would be grateful if you could share the reported AIRE transcriptional activation functional score for K235V .
Found: 1.45

Lookup: Can you share its AIRE transcriptional activation functional score? I mean this variant: V123M
Found: 1.72

Lookup: Query (variant): G204W ; field requested: AIRE transcriptional activation functional score
Found: 0.133

Lookup: // lookup AIRE transcriptional activation functional score for G54P
Found: -0.123

Lookup: Any idea what its AIRE transcriptional activation functional score is? The variant is P405T
Found: 1.16

Lookup: If you can, please state the reported AIRE transcriptional activation functional score value of G260K .
Found: 0.721

Lookup: What does the record list as AIRE transcriptional activation functional score for H48G ?
Found: 0.181

Lookup: Param item = L283Q ; retrieve measured AIRE transcriptional activation functional score.
Found: 0.784

Lookup: Recorded AIRE transcriptional activation functional score for D98I , please?
Found: 0.501

Lookup: Fill blank: measured AIRE transcriptional activation functional score of the variant D478K is ____.
Found: 0.926

Lookup: I would be grateful if you could share the reported AIRE transcriptional activation functional score for A33C .
Found: 0.846

Lookup: Which AIRE transcriptional activation functional score is reported for this variant? L327E
Found: 0.71

Lookup: Look at this variant and give its reported AIRE transcriptional activation functional score. Q262S
Found: 0.84

Lookup: Please look up its AIRE transcriptional activation functional score: R174K
Found: 0.973

Lookup: Field request: AIRE transcriptional activation functional score | item: F82L
Found: 0.0208

Lookup: Look up AIRE transcriptional activation functional score: P481F
Found: 1.16

Lookup: Query: AIRE transcriptional activation functional score; subject: E137P
Found: 1.18

Lookup: Need AIRE transcriptional activation functional score of S156A , thanks.
Found: 0.976

Lookup: Could you share which AIRE transcriptional activation functional score value was measured for W455S ?
Found: 0.675

Lookup: What value of measured AIRE transcriptional activation functional score is listed for E353P ?
Found: 1.12

Lookup: Give its AIRE transcriptional activation functional score value. Item: G112H
Found: 0.912

Lookup: Look up AIRE transcriptional activation functional score: K294G
Found: 0.728

Lookup: What value of AIRE transcriptional activation functional score has been reported for the following variant? S249L
Found: 0.67

Lookup: Name the reported AIRE transcriptional activation functional score value associated with the variant E363L
Found: 1.29

Lookup: # AIRE transcriptional activation functional score lookup, item E353R
Found: 1.14

Lookup: Requested read-out: AIRE transcriptional activation functional score. Entry: A141S
Found: 1.01

Lookup: # input variant: A264H ; wanted: its AIRE transcriptional activation functional score
Found: 1.68

Lookup: For L158S , what is its reported AIRE transcriptional activation functional score?
Found: 0.724

Lookup: # lookup: AIRE transcriptional activation functional score of D23Q
Found: -0.673

Lookup: For the variant shown here, K42F , give the reported AIRE transcriptional activation functional score.
Found: 0.0107

Lookup: Value lookup for AIRE transcriptional activation functional score; key = K161E
Found: 0.442

Lookup: What AIRE transcriptional activation functional score value was documented for this variant, P162A ?
Found: 0.796

Lookup: Field request: AIRE transcriptional activation functional score | item: E485F
Found: 1.1

Lookup: Can you share its AIRE transcriptional activation functional score? I mean this variant: A134D
Found: 0.263

Lookup: I have this variant here, D312S , and I need its recorded AIRE transcriptional activation functional score.
Found: 0.764

Lookup: Query (variant): H454N ; field requested: AIRE transcriptional activation functional score
Found: -0.0603

Lookup: What measured AIRE transcriptional activation functional score goes with L385G ?
Found: 1

Lookup: Which AIRE transcriptional activation functional score reading was recorded for the variant C337A ?
Found: 1.51

Lookup: Which AIRE transcriptional activation functional score is reported for this variant? S156D
Found: 0.928

Lookup: Fill in: AIRE transcriptional activation functional score of P422S is ___
Found: 0.814

Lookup: I am curious: what AIRE transcriptional activation functional score value has been reported for G155N ?
Found: 0.154

Lookup: # AIRE transcriptional activation functional score lookup, item P367A
Found: 0.781

Lookup: Need AIRE transcriptional activation functional score of P492S , thanks.
Found: 1.03

Lookup: Which AIRE transcriptional activation functional score is reported for this variant? K161C
Found: 1.56

Lookup: Field request: AIRE transcriptional activation functional score | item: S324Y
Found: 1.18

Lookup: Which measured AIRE transcriptional activation functional score value corresponds to T504C ?
Found: 1.15

Lookup: Can you look up the measured AIRE transcriptional activation functional score of P460Y for me?
Found: 0.38

Lookup: # query: AIRE transcriptional activation functional score of entry A193M
Found: 0.563

Lookup: Could you tell me which AIRE transcriptional activation functional score is on file for M194N ?
Found: 0.73

Lookup: What value of AIRE transcriptional activation functional score has been recorded for this entry: C55T
Found: 1.49

Lookup: // lookup AIRE transcriptional activation functional score for S287N
Found: 1.13

Lookup: Please give the measured AIRE transcriptional activation functional score for this variant: P481Y
Found: 1.37

Lookup: Returns the measured AIRE transcriptional activation functional score for the input variant. Input: E354P
Found: 0.835

Lookup: Request the reported AIRE transcriptional activation functional score associated with C437M
Found: -0.171

Lookup: Reported AIRE transcriptional activation functional score, variant L495C : ____
Found: 0.97

Lookup: Look up AIRE transcriptional activation functional score for this variant: L67N
Found: 0.265

Lookup: Endpoint output: AIRE transcriptional activation functional score of V345K . Value?
Found: 1.22

Lookup: # AIRE transcriptional activation functional score lookup, item G387Y
Found: 1.72

Lookup: Consider the variant G218N and give its measured AIRE transcriptional activation functional score.
Found: 0.111

Lookup: Item under review: C475N . Reported AIRE transcriptional activation functional score?
Found: 0.255

Lookup: Data request, read-out AIRE transcriptional activation functional score, for P492L
Found: 1.02

Lookup: Look up AIRE transcriptional activation functional score: E517H
Found: 0.164

Lookup: Any idea what its AIRE transcriptional activation functional score is? The variant is A317M
Found: 0.781

Lookup: Report AIRE transcriptional activation functional score for Q425I please.
Found: 1.07

Lookup: Query: AIRE transcriptional activation functional score; subject: A31L
Found: 0.635

Lookup: Can you share its AIRE transcriptional activation functional score? I mean this variant: V301P
Found: 0.662

Lookup: Sample R303W — what was its AIRE transcriptional activation functional score?
Found: 1.02

Lookup: Record request: AIRE transcriptional activation functional score value, item S187R
Found: 1.18

Lookup: Using the record for S332A , report its AIRE transcriptional activation functional score.
Found: 0.774

Lookup: // returns reported AIRE transcriptional activation functional score for input T463K
Found: 0.983

Lookup: What does the data say about its AIRE transcriptional activation functional score? Entry: P325E
Found: 1.45

Lookup: Entry under review: Q182I . Reported AIRE transcriptional activation functional score?
Found: -0.398

Lookup: Look up AIRE transcriptional activation functional score for this variant: Q262F
Found: 1.61

Lookup: Bench note: what AIRE transcriptional activation functional score did V80R show?
Found: -0.324
